Origin of measurements: patent US20190284297A1

Reported MFI on CD8+ T cells by item:
test_system: T1, human CD3ε on T cells (Jurkat T cell line; CD4+ and CD8+ T cells from healthy human donors) (human, UniProt P07766 23-207)
T1 construct: whole, on cells
T1 sequence (P07766 23-207): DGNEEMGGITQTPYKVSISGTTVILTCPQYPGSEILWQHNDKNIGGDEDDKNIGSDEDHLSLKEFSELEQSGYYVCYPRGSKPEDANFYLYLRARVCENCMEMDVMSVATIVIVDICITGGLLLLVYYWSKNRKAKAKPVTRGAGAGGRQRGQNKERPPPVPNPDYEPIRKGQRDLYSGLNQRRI
assay_comment: FACS on CD8+ T cells from PBMCs of healthy donors, antibody at 0.1 µg/ml
property: MFI on CD8+ T cells (MFI)

INSERT INTO assay_data (binder, measured_result) VALUES
  ('IgG 1A10 (antibody, V domains shown, also called L3sp34-G1-2-R2-P1_A10) VH: EVQLVESGGGLVQPGGSLKLSCAASGFTFNTYAMNWVRQAPGKGLEWVGRIRSKYNNYATYYADSVKDRFTISRDDSKNTAYLQMNSLKTEDTAVYYCVRHGNFGNSYVSWFAYWGQGTLVTVSS VL: QTVVTQEPSLTVSPGGTVTLTCRSSTGAVTTSNYANWFQQKPGQAPRGLIGGTNKRAPGTPARFSGSLLGGKAALTLSGAQPEDEAEYYCALWYKGYWVFGGGTKLTVL', 43),
  ('IgG 1D8 (antibody, V domains shown, also called L3sp34-G1-1-R2-P1_D8) VH: EVQLVESGGGLVQPGGSLKLSCAASGFTFNTYAMNWVRQAPGKGLEWVGRIRSKYNNYATYYADSVKDRFTISRDDSKNTAYLQMNSLKTEDTAVYYCVRHGNFGNSYVSWFAYWGQGTLVTVSS VL: QTVVTQEPSLTVSPGGTVTLTCRSSTGAVTTSNYANWFQQKPGQAPRGLIGGTNKRAPGTPARFSGSLLGGKAALTLSGAQPEDEAEYYCALWYDGTWVFGGGTKLTVL', 161),
  ('IgG 1B6 (antibody, V domains shown, also called L3sp34-G1-1-R2-P1_B6) VH: EVQLVESGGGLVQPGGSLKLSCAASGFTFNTYAMNWVRQAPGKGLEWVGRIRSKYNNYATYYADSVKDRFTISRDDSKNTAYLQMNSLKTEDTAVYYCVRHGNFGNSYVSWFAYWGQGTLVTVSS VL: QTVVTQEPSLTVSPGGTVTLTCRSSTGAVTTSNYANWFQQKPGQAPRGLIGGTNKRAPGTPARFSGSLLGGKAALTLSGAQPEDEAEYYCALWYANRWVFGGGTKLTVL', 130),
  ('IgG 1A11 (antibody, V domains shown, also called L3sp34-G1-1-R2-P1_A11) VH: EVQLVESGGGLVQPGGSLKLSCAASGFTFNTYAMNWVRQAPGKGLEWVGRIRSKYNNYATYYADSVKDRFTISRDDSKNTAYLQMNSLKTEDTAVYYCVRHGNFGNSYVSWFAYWGQGTLVTVSS VL: QTVVTQEPSLTVSPGGTVTLTCRSSTGAVTTSNYANWFQQKPGQAPRGLIGGTNKRAPGTPARFSGSLLGGKAALTLSGAQPEDEAEYYCALWYDGWWVFGGGTKLTVL', 119),
  ('IgG 1A4 (antibody, V domains shown, also called L3sp34-G1-2-R2-P1_A4) VH: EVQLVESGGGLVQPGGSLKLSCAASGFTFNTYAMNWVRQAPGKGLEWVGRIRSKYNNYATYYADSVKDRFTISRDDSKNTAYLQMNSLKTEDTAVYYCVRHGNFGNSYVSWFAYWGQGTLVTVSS VL: QTVVTQEPSLTVSPGGTVTLTCRSSTGAVTTSNYANWFQQKPGQAPRGLIGGTNKRAPGTPARFSGSLLGGKAALTLSGAQPEDEAEYYCALWYKQRWVFGGGTKLTVL', 173),
  ('IgG 1F8 (antibody, V domains shown, also called L3sp34-G1-2-R2-P1_F8) VH: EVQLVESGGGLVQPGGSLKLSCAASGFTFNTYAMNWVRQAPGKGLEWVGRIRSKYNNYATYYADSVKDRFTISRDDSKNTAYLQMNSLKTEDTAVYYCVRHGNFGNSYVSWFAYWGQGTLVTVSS VL: QTVVTQEPSLTVSPGGTVTLTCRSSTGAVTTSNYANWFQQKPGQAPRGLIGGTNKRAPGTPARFSGSLLGGKAALTLSGAQPEDEAEYYCALWYDGKWVFGGGTKLTVL', 157);
